tested on: Sodium/Iodide Symporter (NIS), SLC5A5 (gene 6528); assay: CPHEA_Stoker_NIS_Inhibition_RAIU: CPHEA's Radioactive Iodide Uptake (RAIU) Assay for Sodium/Iodide Symporter (NIS) Inhibition, Stoker and Laws Labs (AID 2283841)
Inconclusive results are not listed. Active and inactive are the calls of the source. Rule for the calls: active = hit-call score of the fitted dose curve at least 0.9, where 1 is the maximum; inconclusive = response in the unintended direction; inactive = score below 0.9.
Outcome codes: true = active, false = inactive

>>> cat("CS/C(C)=N/OC(=O)N(C)SN(C)C(=O)O/N=C(\\C)SC")
"false"
>>> cat("C=CCC1=C(C)[C@@H](OC(=O)[C@@H]2[C@@H](C=C(C)C)C2(C)C)CC1=O")
"true"
>>> cat("N#CC(CCc1ccc(Cl)cc1)(Cn1cncn1)c1ccccc1 (centres undefined)")
"true"
>>> cat("CCc1nn(C)c(C(=O)NCc2ccc(C(C)(C)C)cc2)c1Cl")
"true"

---

read-out: Monokine induced gamma interferon (MIG), CXCL9 (gene 4283); test: BSK_hDFCGF_MIG: BioMAP Diversity Plus: hDFCGF Assay for Monokine induced gamma interferon (MIG) Biomarker Activity (AID 2283063); settings: primary human foreskin fibroblasts; actives raise or lower the signal
Calls of active or inactive are those of the source. How the source made its calls: active means hit-call score of the fitted dose curve at least 0.9, where 1 is the maximum; inactive means score below 0.9.
Outcome codes: class 1 = active, class 0 = inactive

>>> cat("C=CC1(C)OC(=O)N(c2cc(Cl)cc(Cl)c2)C1=O (centres undefined)")
"class 0"
>>> cat("COP(=S)(OC)Oc1nc(Cl)c(Cl)cc1Cl")
"class 1"
>>> cat("CCCCOC(=O)c1ccccc1C(=O)OCCCC")
"class 0"
>>> cat("Fc1ccc(Oc2ccnc3cc(Cl)cc(Cl)c23)cc1")
"class 1"

---

read-out: CD40, CD40 (gene 958); assay: BSK_LPS_CD40: BioMAP Diversity Plus: LPS Assay for CD40 Biomarker Activity (AID 2283076); settings: primary human HUVEC with PBMC; actives raise or lower the signal
Activity calls are given as the source filed them. The calls were made as follows: active = hit-call score of the fitted dose curve at least 0.9, where 1 is the maximum; inactive = score below 0.9.
Outcome codes: active, inactive

>>> cat("COc1cnc(OC)n2nc(NS(=O)(=O)c3c(OCC(F)F)cccc3C(F)(F)F)nc12")
"inactive"
>>> cat("COP(=S)(OC)Oc1nc(Cl)c(Cl)cc1Cl")
"inactive"
>>> cat("COC(=O)N(OC)c1ccccc1COc1ccn(-c2ccc(Cl)cc2)n1")
"active"
>>> cat("CCOP(=S)(OCC)SCn1c(=O)oc2cc(Cl)ccc21")
"active"
>>> cat("Cc1cc(Cl)ccc1OCC(=O)O")
"inactive"
>>> cat("COC(=O)c1ccccc1C(=O)OC")
"inactive"
>>> cat("CCCCNC(=O)n1c(NC(=O)OC)nc2ccccc21")
"inactive"
>>> cat("CC1=C(C(=O)Nc2ccccc2)SCCO1")
"inactive"

---

read-out: Bcl-2 (BID) gene, BID (gene 637); assay: LTEA_HepaRG_BID: Life Technologies and Expression Analysis (LTEA) Assay for Bcl-2 (BID) gene using HepaRG (AID 2283476); details: mRNA level, 48 h; actives raise or lower the signal
The source made the active and inactive calls. How the source made its calls: active means hit-call score of the fitted dose curve at least 0.9, where 1 is the maximum; inactive means score below 0.9.
Outcome codes: active, inactive

>>> cat("Cc1c(F)c(F)c(COC(=O)C2C(/C=C(\\Cl)C(F)(F)F)C2(C)C)c(F)c1F (stereo not drawn)")
"inactive"
>>> cat("C=CC1(C)OC(=O)N(c2cc(Cl)cc(Cl)c2)C1=O (stereo not drawn)")
"inactive"
>>> cat("CCNc1nc(Cl)nc(NCC)n1")
"inactive"
>>> cat("COP(=S)(OC)Oc1nc(Cl)c(Cl)cc1Cl")
"inactive"
>>> cat("Fc1ccc(Oc2ccnc3cc(Cl)cc(Cl)c23)cc1")
"inactive"
>>> cat("CC1COC(Cn2cncn2)(c2ccc(Oc3ccc(Cl)cc3)cc2Cl)O1 (stereo not drawn)")
"active"
>>> cat("CNC(=O)ON=CC(C)(C)SC")
"inactive"
>>> cat("C=CCC1=C(C)C(OC(=O)C2C(C=C(C)C)C2(C)C)CC1=O (stereo not drawn)")
"inactive"
>>> cat("CCOC(=O)C(Cl)Cc1cc(-n2nc(C)n(C(F)F)c2=O)c(F)cc1Cl (stereo not drawn)")
"inactive"
>>> cat("CN(C)C(=S)SSC(=S)N(C)C")
"inactive"
>>> cat("COc1cnc(OC)n2nc(NS(=O)(=O)c3c(OCC(F)F)cccc3C(F)(F)F)nc12")
"inactive"
>>> cat("CC1=C(C(=O)Nc2ccccc2)SCCO1")
"inactive"
>>> cat("CCOc1cc(Oc2ccc(C(F)(F)F)cc2Cl)ccc1[N+](=O)[O-]")
"inactive"

---

assay: ACEA_AR_antagonist_AUC_viability: ACEA Biosciences xCELLigence Real-Time Cell Analysis on Androgen Receptor Antagonism for Viability (AID 2283776);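 note: 22Rv1 human prostate cancer cells growing on impedance electrode plates; area under impedance growth curve at 80 h after dosing as viability; hits lower the growth signal relative to DMSO meaning cytotoxicity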
Records with an inconclusive call do not appear. Active and inactive are the calls of the source. The calls were made as follows: active = hit-call score of the fitted dose curve at least 0.9, where 1 is the maximum; inconclusive = response in the unintended direction; inactive = score below 0.9.
Outcome codes: yes (1) (active), no (0) (inactive)

>>> cat("OC(c1ccc(Cl)cc1)(c1cncnc1)c1ccccc1Cl (stereo not given)")
"yes (1)"
>>> cat("N#Cc1cc(Br)c(O)c(Br)c1")
"yes (1)"
>>> cat("COC(=O)C(C)Oc1ccc(Oc2ccc(Cl)cc2Cl)cc1 (stereo not given)")
"yes (1)"
>>> cat("CC(C)Oc1cc(-n2nc(C(C)(C)C)oc2=O)c(Cl)cc1Cl")
"yes (1)"
>>> cat("O=C(O)c1nc(Cl)ccc1Cl")
"no (0)"
>>> cat("CS/C(C)=N/OC(=O)N(C)SN(C)C(=O)O/N=C(\\C)SC")
"yes (1)"
>>> cat("CCCCNC(=O)OCC#CI")
"yes (1)"
>>> cat("COc1ccc(C(c2ccc(OC)cc2)C(Cl)(Cl)Cl)cc1")
"yes (1)"
>>> cat("N#CC(CCc1ccc(Cl)cc1)(Cn1cncn1)c1ccccc1 (stereo not given)")
"yes (1)"
>>> cat("CC(Oc1ccc(Cl)cc1Cl)C(=O)O (stereo not given)")
"no (0)"
>>> cat("CCNc1nc(Cl)nc(NC(C)C)n1")
"no (0)"
>>> cat("CCCCC(CC)COC(=O)c1ccccc1C(=O)OCC(CC)CCCC (stereo not given)")
"yes (1)"
>>> cat("CCOc1cc(Oc2ccc(C(F)(F)F)cc2Cl)ccc1[N+](=O)[O-]")
"yes (1)"
>>> cat("COc1cnc(OC)n2nc(NS(=O)(=O)c3c(OCC(F)F)cccc3C(F)(F)F)nc12")
"no (0)"
>>> cat("CCON=C(CC)C1=C(O)CC(c2c(C)cc(C)cc2C)CC1=O (stereo not given)")
"no (0)"
>>> cat("CN(C)C(=S)SSC(=S)N(C)C")
"yes (1)"
>>> cat("N#Cc1nn(-c2c(Cl)cc(C(F)(F)F)cc2Cl)c(N)c1S(=O)C(F)(F)F (stereo not given)")
"yes (1)"
>>> cat("CC(C)C1(C)N=C(c2nc3ccccc3cc2C(=O)O)NC1=O (stereo not given)")
"no (0)"
>>> cat("COC(=O)c1ccccc1C(=O)OC")
"no (0)"
>>> cat("COC(=O)C=C(C)OP(=O)(OC)OC")
"yes (1)"

---

assay: Tanguay_ZF_120hpf_JAW_legacy: (Legacy) Oregon State University Tanguay Lab 120 Hour Post-fertilization zebrafish Assay for Jaw Malformation (AID 2283638)
Results filed as inconclusive are left out. Active and inactive are the calls of the source. How the source made its calls: active means hit-call score of the fitted dose curve at least 0.9, where 1 is the maximum; inconclusive means response in the unintended direction; inactive means score below 0.9.
Outcome codes: active, inactive

>>> cat("COP(=S)(OC)Oc1nc(Cl)c(Cl)cc1Cl")
"active"
>>> cat("CCON=C(CC)C1=C(O)CC(c2c(C)cc(C)cc2C)CC1=O (stereo not given)")
"inactive"
>>> cat("N#CC(CCc1ccc(Cl)cc1)(Cn1cncn1)c1ccccc1 (stereo not given)")
"inactive"
>>> cat("Cc1cc(Cl)ccc1OCC(=O)O")
"inactive"
>>> cat("CO/C=C(/C(=O)OC)c1ccccc1Oc1cc(Oc2ccccc2C#N)ncn1")
"inactive"
>>> cat("Cc1ccc(-c2c(Cl)nc(C#N)n2S(=O)(=O)N(C)C)cc1")
"inactive"
>>> cat("CCc1nn(C)c(C(=O)NCc2ccc(C(C)(C)C)cc2)c1Cl")
"active"
>>> cat("CC1=C(C(=O)Nc2ccccc2)SCCO1")
"inactive"
>>> cat("CN(C)C(=S)SSC(=S)N(C)C")
"inactive"
>>> cat("CC(C)(C)c1ccc(CSc2cnn(C(C)(C)C)c(=O)c2Cl)cc1")
"inactive"
>>> cat("C=CC1(C)OC(=O)N(c2cc(Cl)cc(Cl)c2)C1=O (stereo not given)")
"inactive"
>>> cat("CCCN(CCC)c1c([N+](=O)[O-])cc(S(N)(=O)=O)cc1[N+](=O)[O-]")
"inactive"
>>> cat("CCCC1COC(Cn2cncn2)(c2ccc(Cl)cc2Cl)O1 (stereo not given)")
"active"
>>> cat("CCOc1cc(Oc2ccc(C(F)(F)F)cc2Cl)ccc1[N+](=O)[O-]")
"inactive"
>>> cat("CC(C)C1(C)N=C(c2nc3ccccc3cc2C(=O)O)NC1=O (stereo not given)")
"inactive"

---

read-out: Transforming growth factor beta 1 (TGFb1), TGFB1 (gene 7040); assay: BSK_BE3C_TGFb1: BioMAP Diversity Plus: BE3C Assay for Transforming growth factor beta 1 (TGFb1) Biomarker Activity (AID 2283036;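 for Outcome: TGF-b1 protein level measured by ELISA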); conditions: primary human bronchial epithelial cells; actives raise or lower the signal
The source made the active and inactive calls. How the source made its calls: active means hit-call score of the fitted dose curve at least 0.9, where 1 is the maximum; inactive means score below 0.9.
Outcome codes: 1 for active, 0 for inactive

>>> cat("CON(C)C(=O)Nc1ccc(Cl)c(Cl)c1")
0
>>> cat("CC(C)Oc1cc(-n2nc(C(C)(C)C)oc2=O)c(Cl)cc1Cl")
0
>>> cat("COc1nc(NC(C)C)nc(NC(C)C)n1")
0
>>> cat("C#CCOS(=O)OC1CCCCC1Oc1ccc(C(C)(C)C)cc1 (centres undefined)")
0
>>> cat("CCCCOC(=O)c1ccccc1C(=O)OCCCC")
0
>>> cat("Oc1ccccc1-c1ccccc1")
0
>>> cat("COP(N)(=O)SC (centres undefined)")
0
>>> cat("Fc1ccc(Oc2ccnc3cc(Cl)cc(Cl)c23)cc1")
1
>>> cat("CNC(=O)ON=CC(C)(C)SC")
0
>>> cat("CCCC1COC(Cn2cncn2)(c2ccc(Cl)cc2Cl)O1 (centres undefined)")
0
>>> cat("COC(=O)c1ccccc1C(=O)OC")
0
>>> cat("C=CCC1=C(C)[C@@H](OC(=O)[C@@H]2[C@@H](C=C(C)C)C2(C)C)CC1=O")
0
>>> cat("CN(C)C(=S)SSC(=S)N(C)C")
1
>>> cat("CCc1nn(C)c(C(=O)NCc2ccc(C(C)(C)C)cc2)c1Cl")
0
>>> cat("CCOP(=S)(OCC)SCn1c(=O)oc2cc(Cl)ccc21")
0
>>> cat("COC(=O)C(C)Oc1ccc(Oc2ccc(Cl)cc2Cl)cc1 (centres undefined)")
0
>>> cat("CC(Oc1ccc(Cl)cc1Cl)C(=O)O (centres undefined)")
0
>>> cat("CNC(=S)S")
0
>>> cat("C=CCC1=C(C)C(OC(=O)C2C(C=C(C)C)C2(C)C)CC1=O (centres undefined)")
0
>>> cat("CCOC(=O)CC(SP(=S)(OC)OC)C(=O)OCC (centres undefined)")
0
>>> cat("COc1cnc(OC)n2nc(NS(=O)(=O)c3c(OCC(F)F)cccc3C(F)(F)F)nc12")
0
>>> cat("CCCCNC(=O)n1c(NC(=O)OC)nc2ccccc21")
0
>>> cat("CCOC(=O)C(Cl)Cc1cc(-n2nc(C)n(C(F)F)c2=O)c(F)cc1Cl (centres undefined)")
0
>>> cat("CO/C=C(/C(=O)OC)c1ccccc1Oc1cc(Oc2ccccc2C#N)ncn1")
0
